The origin of these recorded values is ChEMBL document CHEMBL1201862.

target: Voltage-dependent T-type calcium channel subunit alpha-1H (Homo sapiens, UniProt O95180); assay type: functional;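 also: channel activity triggered by adding a high calcium stimulation buffer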
Sequence (O95180 whole entry): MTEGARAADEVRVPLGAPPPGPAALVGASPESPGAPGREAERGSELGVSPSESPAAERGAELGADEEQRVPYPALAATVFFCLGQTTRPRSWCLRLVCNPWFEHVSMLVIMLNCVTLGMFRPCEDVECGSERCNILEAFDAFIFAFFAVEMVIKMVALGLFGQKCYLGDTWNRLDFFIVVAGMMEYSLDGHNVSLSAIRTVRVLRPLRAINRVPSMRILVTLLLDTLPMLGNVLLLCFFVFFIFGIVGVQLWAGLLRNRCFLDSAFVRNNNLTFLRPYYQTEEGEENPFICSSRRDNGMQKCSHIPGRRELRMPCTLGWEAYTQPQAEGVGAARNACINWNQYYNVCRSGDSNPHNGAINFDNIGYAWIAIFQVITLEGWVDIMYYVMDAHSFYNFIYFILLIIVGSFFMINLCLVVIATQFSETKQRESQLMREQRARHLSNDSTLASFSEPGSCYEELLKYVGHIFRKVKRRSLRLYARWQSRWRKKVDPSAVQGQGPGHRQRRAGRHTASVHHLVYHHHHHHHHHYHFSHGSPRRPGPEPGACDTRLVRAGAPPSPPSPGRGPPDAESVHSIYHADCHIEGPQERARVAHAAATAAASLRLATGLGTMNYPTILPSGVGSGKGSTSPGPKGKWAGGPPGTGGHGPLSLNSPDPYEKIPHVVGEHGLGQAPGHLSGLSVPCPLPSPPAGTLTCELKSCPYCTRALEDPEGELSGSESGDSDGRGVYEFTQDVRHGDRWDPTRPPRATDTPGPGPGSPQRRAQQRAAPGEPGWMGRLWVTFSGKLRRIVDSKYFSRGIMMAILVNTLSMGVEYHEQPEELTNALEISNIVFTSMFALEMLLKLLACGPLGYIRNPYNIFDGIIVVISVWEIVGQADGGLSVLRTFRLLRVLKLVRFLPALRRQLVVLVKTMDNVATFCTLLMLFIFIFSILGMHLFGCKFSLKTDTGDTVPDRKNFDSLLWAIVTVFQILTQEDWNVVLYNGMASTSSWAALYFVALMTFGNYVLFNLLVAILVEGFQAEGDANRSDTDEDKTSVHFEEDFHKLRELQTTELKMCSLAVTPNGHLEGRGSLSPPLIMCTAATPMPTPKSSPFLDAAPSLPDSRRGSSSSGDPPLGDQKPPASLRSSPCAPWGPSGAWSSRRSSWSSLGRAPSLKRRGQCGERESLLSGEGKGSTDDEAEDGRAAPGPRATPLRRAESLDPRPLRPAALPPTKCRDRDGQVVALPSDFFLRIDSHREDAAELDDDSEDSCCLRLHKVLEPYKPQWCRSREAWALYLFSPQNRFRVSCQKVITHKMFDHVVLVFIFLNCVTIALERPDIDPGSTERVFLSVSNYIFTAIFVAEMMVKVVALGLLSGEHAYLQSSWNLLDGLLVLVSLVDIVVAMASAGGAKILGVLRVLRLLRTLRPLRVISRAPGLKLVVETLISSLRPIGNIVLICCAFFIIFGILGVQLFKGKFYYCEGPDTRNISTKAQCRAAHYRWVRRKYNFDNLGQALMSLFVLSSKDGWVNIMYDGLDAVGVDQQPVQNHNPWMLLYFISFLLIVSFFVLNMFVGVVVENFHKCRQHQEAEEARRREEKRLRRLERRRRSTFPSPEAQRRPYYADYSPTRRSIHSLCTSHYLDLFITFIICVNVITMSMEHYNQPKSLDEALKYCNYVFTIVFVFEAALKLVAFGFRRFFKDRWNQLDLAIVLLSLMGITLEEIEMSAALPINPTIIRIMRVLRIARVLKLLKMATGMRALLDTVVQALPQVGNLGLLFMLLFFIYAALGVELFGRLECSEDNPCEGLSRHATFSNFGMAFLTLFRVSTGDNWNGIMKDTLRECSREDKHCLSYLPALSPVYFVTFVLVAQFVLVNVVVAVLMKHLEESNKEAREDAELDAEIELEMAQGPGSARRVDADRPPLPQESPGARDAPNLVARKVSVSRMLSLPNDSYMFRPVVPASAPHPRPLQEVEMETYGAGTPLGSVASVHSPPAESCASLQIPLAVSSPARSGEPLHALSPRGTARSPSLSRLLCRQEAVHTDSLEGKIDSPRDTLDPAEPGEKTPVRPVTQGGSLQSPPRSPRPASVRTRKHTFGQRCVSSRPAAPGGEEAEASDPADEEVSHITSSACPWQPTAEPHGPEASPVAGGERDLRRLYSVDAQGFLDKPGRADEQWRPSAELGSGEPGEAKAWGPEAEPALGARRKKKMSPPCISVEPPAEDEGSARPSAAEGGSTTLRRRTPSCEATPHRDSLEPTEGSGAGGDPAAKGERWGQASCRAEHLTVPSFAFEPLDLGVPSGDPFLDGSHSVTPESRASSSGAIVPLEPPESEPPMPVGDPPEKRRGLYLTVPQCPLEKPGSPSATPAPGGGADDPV
Activity calls are given as the source filed them.
Examples of compounds with documented EC50 follow.
outcome measure: EC50

O=C(CN1CCc2ccccc2C1)Nc1ccccc1N1CCCCCC1    8.39 µM (active)
O=C(Nc1nnc(-c2ccc3c(c2)CCCC3)o1)C1COc2ccccc2O1 (stereo unspecified)    1.37 µM (active)
O=C(CCC1N=C2c3ccccc3N=C(SCc3ccccc3Cl)N2C1=O)NCc1ccco1 (stereo unspecified)    14 µM (active)
CC(/C=C(\O)c1ccncc1)=N\c1ccccc1O    3.26 µM (active)
Cc1cccc(NC(=O)C23CCC(C)(C2Br)C3(C)C)c1 (stereo unspecified)    2.64 µM (active)
COc1cccc(OCC(O)CN2CCC(Cc3ccccc3)CC2)c1 (stereo unspecified)    4.62 µM (active)
